test: in vivo; settings: rat, plasma, intravenous, 5 mg/kg
measurement.name: concentration at 20 min (nM)
Entry rule: numbers only, all in nM.

Task: What measured concentration at 20 min goes with CC(C)c1cccc(C(C)C)c1O ?
Output: 750

* * *

assay: in vivo; conditions: rat, in vivo, iv, 5 mg/kg
measurement.name: AUC
Answer format: number, then unit.

Task: What measured AUC goes with CC(C)c1cccc(C(C)C)c1O [2,6-diisopropyl phenol] ?
Output: 400 ng·h/mL

* * *

experiment: in vivo; conditions: rat, in vivo, iv, 5 mg/kg
measurement.name: Vd (L/kg)
Entry rule: numbers only, all in L/kg.

Task: What measured Vd goes with CC(C)c1cccc(C(C)C)c1O ?
Output: 73
